protocol-text: qHTS assay for identifying genotoxic compounds that show differential cytotoxicity against isogenic chicken DT40 cell lines with known DNA damage response pathways - Rad54/Ku70 mutant cell line (AID 743015); further: nearly all actives have a fitted effect of over 60% in size; further: potency means the concentration at half of the fitted maximal effect
assay-setup: DT40 Rad54/Ku70 mutant viability, CellTiter-Glo, 40 h; series mostly up to 66.8 µM
Records with an inconclusive call do not appear. Calls of active or inactive are those of the source. The call rests on the fitted dose curve; in most records, active means well fitted cell-killing curve with a large enough effect in the repeat runs; inconclusive means weak or mixed curves; inactive means no such curve, though single readings can be large or run the other way.
measured-property: Potency

# compound, observed-measurement
records = [
    ("CCCCc1ccc(C(=O)O)nc1", "inactive"),
    ("COC(COC(N)=O)C1=C(N2CC2)C(=O)C(C)=C(N2CC2)C1=O (stereo unspecified)", "4.7 nM (active)"),
    ("O=C(O)/C=C\\C(=O)O", "inactive"),
    ("S=C(S)N1CCNCC1", "inactive"),
    ("Cc1ccc(N(SC(F)(Cl)Cl)S(=O)(=O)N(C)C)cc1", "137 nM (active)"),
    ("CC(C)[C@H]1C(=O)N2CCC[C@H]2[C@]2(O)O[C@](NC(=O)[C@@H]3C[C@@H]4c5cccc6[nH]cc(c56)C[C@H]4N(C)C3)(C(C)C)C(=O)N12", "26600 nM (active)"),
    ("Cc1cc(C)cc(C(=O)OC2C[C@H]3CC[C@@H](C2)N3C)c1 (stereo partly specified)", "5310 nM (active)"),
    ("O=C(O)CCCO", "inactive"),
    ("CCN1C[C@]2(COC)[C@H](O)C[C@H](OC)[C@@]34[C@@H]5C[C@@]6(O)[C@H](OC(=O)c7ccccc7)[C@@H]5[C@@](OC(C)=O)([C@@H]([C@H](OC)[C@H]23)[C@@H]14)[C@@H](O)[C@@H]6OC", "inactive"),
    ("O=c1[nH]cc(N(CCCl)CCCl)c(=O)[nH]1", "inactive"),
    ("NC1=NC(=O)N2CC12 (stereo unspecified)", "inactive"),
    ("CC(=O)O[C@H]1C[C@H](O[C@H]2[C@@H](O)C[C@H](O[C@H]3[C@@H](O)C[C@H](OC4CC[C@@]5(C)[C@H](CC[C@@H]6[C@@H]5CC[C@]5(C)[C@@H](C7=CC(=O)OC7)CC[C@]65O)C4)O[C@@H]3C)O[C@@H]2C)O[C@H](C)[C@H]1O[C@@H]1O[C@H](CO)[C@@H](O)[C@H](O)[C@H]1O (stereo partly specified)", "596 nM (active)"),
    ("CN[C@]1(c2ccccc2Cl)CCCCC1=O", "inactive"),
    ("O=C1Nc2ccc(Cl)cc2C(c2ccccc2Cl)=NC1O (stereo unspecified)", "inactive"),
    ("COc1ccc2c3c1O[C@H]1[C@@H](O)C=C[C@H]4[C@@H](C2)NCC[C@@]341", "inactive"),
    ("O=C(Nc1ccccc1-c1ccc(Cl)cc1)c1cccnc1Cl", "66700 nM (active)"),
]

----------
protocol-text: qHTS RealTime-Glo MT Cell Viability Assay in HEK293 cells - 8 hour (AID 1224887); further: nearly all actives have a fitted effect of over 50% in size
assay-setup: RealTime-Glo luminescence; series mostly up to 76.8 µM
Inconclusive results are not listed. Active and inactive are the calls of the source. Calls follow the shape of the dose curve; as a rule, active = well fitted cell-killing curve with a large enough effect in the repeat runs; inconclusive = weak or mixed curves, or effect the other way; inactive = flat fitted curve, though single readings scatter.
Labels: 1 = active, -1 = inactive

# structure, label-value
records = [
    ("N#Cc1cc([N+](=O)[O-])ccc1N", -1),
    ("Cc1ccc(N(SC(F)(Cl)Cl)S(=O)(=O)N(C)C)cc1", 1),
    ("O=S(=O)(C(Cl)(Cl)Cl)C(Cl)(Cl)Cl", 1),
    ("Oc1c(I)cc(I)cc1I", -1),
]
